Subject Of Test: mouse α2B receptor (Mus musculus, UniProt P30545)
Construct: expressed in transfected cells; host or cells: HEK 293
Sequence (P30545 whole entry): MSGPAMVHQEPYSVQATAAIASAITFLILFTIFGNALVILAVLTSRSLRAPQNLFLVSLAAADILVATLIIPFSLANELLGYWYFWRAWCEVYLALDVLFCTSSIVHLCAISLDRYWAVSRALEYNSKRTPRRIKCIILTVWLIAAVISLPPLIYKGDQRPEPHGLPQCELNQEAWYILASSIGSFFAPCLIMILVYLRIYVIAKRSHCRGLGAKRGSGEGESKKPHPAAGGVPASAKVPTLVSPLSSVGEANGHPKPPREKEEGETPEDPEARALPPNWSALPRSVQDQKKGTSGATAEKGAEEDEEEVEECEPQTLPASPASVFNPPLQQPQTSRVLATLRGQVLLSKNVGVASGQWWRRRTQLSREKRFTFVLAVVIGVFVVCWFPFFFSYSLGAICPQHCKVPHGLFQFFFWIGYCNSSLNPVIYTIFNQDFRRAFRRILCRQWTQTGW
Experimental Protocol: FLIPR Ca+2 influx assay, α2B
Assay type: cell-based
Assay Conditions: relative efficacy compared to standard full agonist norepinephrine; HEK 293, mouse α2B/Gα16
Label true (1) when Relative efficacy FLIPR α2B < 0.6; otherwise false (0).

# Compound, Cat
rows = [
    ("CCCN(Cc1ccncc1)C1CCc2cccc(OC)c2C1 (centres unmarked)", "false (0)"),
    ("CCCN(Cc1ccccn1)C1CCc2cccc(O)c2C1 (centres unmarked) [drawing 20]", "false (0)"),
    ("CCN(Cc1ccccn1)C1CCc2cccc(O)c2C1 (centres unmarked)", "true (1)"),
]

Ask: Please determine if CCCN(Cc1ccccn1)C1CCc2cccc(OC)c2C1 (centres unmarked) is below 0.6 in terms of Relative efficacy FLIPR α2B.
Reply: false (0)

Ask: Please determine if CCN(Cc1cccnc1)C1CCc2cccc(OC)c2C1 (centres unmarked) is below 0.6 in terms of Relative efficacy FLIPR α2B.
Reply: true (1)

Ask: Please determine if CCN(Cc1cccnc1)C1CCc2cccc(O)c2C1 (centres unmarked) is below 0.6 in terms of Relative efficacy FLIPR α2B.
Reply: false (0)

Ask: Please determine if CCCN(Cc1ccncc1)[C@@H]1CCc2cccc(OC)c2C1 is below 0.6 in terms of Relative efficacy FLIPR α2B.
Reply: false (0)

Ask: Please determine if CCN(Cc1ccccn1)C1CCc2cccc(OC)c2C1 (centres unmarked) is below 0.6 in terms of Relative efficacy FLIPR α2B.
Reply: true (1)

Ask: Please determine if CCCN(Cc1ccncc1)[C@@H]1CCc2cccc(O)c2C1 is below 0.6 in terms of Relative efficacy FLIPR α2B.
Reply: false (0)

Ask: Please determine if CCN(Cc1ccncc1)C1CCc2cccc(O)c2C1 (centres unmarked) is below 0.6 in terms of Relative efficacy FLIPR α2B.
Reply: false (0)

Ask: Please determine if CCCN(Cc1ccncc1)C1CCc2cccc(O)c2C1 (centres unmarked) is below 0.6 in terms of Relative efficacy FLIPR α2B.
Reply: false (0)

Ask: Please determine if CCN(Cc1ccncc1)C1CCc2cccc(OC)c2C1 (centres unmarked) is below 0.6 in terms of Relative efficacy FLIPR α2B.
Reply: false (0)

Ask: Please determine if CCCN(Cc1cccnc1)C1CCc2cccc(OC)c2C1 (centres unmarked) is below 0.6 in terms of Relative efficacy FLIPR α2B.
Reply: true (1)

Ask: Please determine if CCCN(Cc1ccccn1)C1CCc2cccc(O)c2C1 (centres unmarked) [drawing 21] is below 0.6 in terms of Relative efficacy FLIPR α2B.
Reply: false (0)
